meta.source: patent US20240199564A1

This listing pairs compounds with measured % degradation at 28 days.
# method-notes: Solution state stability assay
# Assay type: physicochemical
# condition-info: pH = ~7.4 (1X Phosphate Buffered Saline), 50° C., HPLC

Consider the following illustrative entries.
Q) So what's the measured % degradation at 28 days for this one? "CC(C)[C@@H]1CC[C@@H](C)C[C@H]1OC(=O)Nc1cccc(CN)c1"
A) ~41.2%

Q) So what's the measured % degradation at 28 days for this one? "CC(C)[C@@H]1CC[C@@H](C)C[C@H]1C(=O)N(C)c1cccc(CN)c1"
A) ~31.9%

Q) So what's the measured % degradation at 28 days for this one? "CC(C)[C@@H]1CC[C@@H](C)C[C@H]1C(=O)NCc1ccc(CN)cc1.Cl"
A) ~1.7%

Q) So what's the measured % degradation at 28 days for this one? "CC(C)[C@@H]1CC[C@@H](C)C[C@H]1OCC(=O)N(C)c1cccc(CN)c1"
A) ~8.1%

---
Q) So what's the measured % degradation at 28 days for this one? "CC(C)[C@@H]1CC[C@@H](C)C[C@H]1OC(=O)N(C)c1cccc(CN)c1"
A) ~24.4%
